Data origin, for the record: paper PMC6611044

- experiment_description: PK analysis after i.v. administration of N-251 in fasted mice
- Format: in vivo
- test_settings: male, ICR, mouse, plasma, iv; i.v. 25 mg/kg, fasted mice; read-out: CLtotal (converted)
endpoint_name: clearance (mL/min/kg)
# value in mL/min/kg; strip the unit string

Just so you know, measured clearance for OCCCCCCC1COOC2(CCCCCCCCCCC2)OOC1 came out at 55.8

====

- experiment_description: PK analysis after p.o. administration of N-251 in fasted mice
- Format: in vivo
- test_settings: male, ICR, mouse, plasma, po, p.o. 68 mg/kg
endpoint_name: Tmax (h)
Supply the numeric figure in h, leaving out any unit text.

In plain terms, OCCCCCCC1COOC2(CCCCCCCCCCC2)OOC1 has a documented Tmax of 2
